The reported numbers originate from patent US20250320312A1.

SYSTEM TESTED: BSA (UniProt P02769)
Sequence (P02769 25-607 limits assumed): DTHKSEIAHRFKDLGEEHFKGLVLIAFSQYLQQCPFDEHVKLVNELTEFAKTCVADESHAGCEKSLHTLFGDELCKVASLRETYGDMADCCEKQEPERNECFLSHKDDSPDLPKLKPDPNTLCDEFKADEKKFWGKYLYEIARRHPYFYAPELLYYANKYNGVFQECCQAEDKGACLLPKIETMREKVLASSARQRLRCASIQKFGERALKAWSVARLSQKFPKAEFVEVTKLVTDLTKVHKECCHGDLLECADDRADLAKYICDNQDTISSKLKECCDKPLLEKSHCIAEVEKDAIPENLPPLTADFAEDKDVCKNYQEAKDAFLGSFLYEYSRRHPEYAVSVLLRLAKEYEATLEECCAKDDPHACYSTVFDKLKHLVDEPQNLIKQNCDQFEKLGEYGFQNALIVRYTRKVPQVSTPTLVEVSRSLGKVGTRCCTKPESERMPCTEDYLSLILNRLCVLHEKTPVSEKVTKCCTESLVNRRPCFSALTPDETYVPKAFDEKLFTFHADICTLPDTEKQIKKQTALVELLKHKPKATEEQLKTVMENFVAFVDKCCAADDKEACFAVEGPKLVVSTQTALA
EXPERIMENT: scFv ELISA
Below, each entry is listed with its recorded OD450.
Only the number, expressed in OD450, is required.

[
  {
    "BINDER": "PcOxP_DB01_G09 (scFv, V domains shown, scFv in periplasmic extract) VH: EVQLLESGGGLVQPGGSLRLSCAASGFTFSDYYMEWVRQAPGKGLEWVAASRNKANTYTTEYADSVKGRFTISRDNSKNTLYLQMNSLRAEDTAVYYCARDYYGSSYWYFDVWGQGTLVTVSS VL: DIQMTQSPSSLSASVGDRVTITCTASESLYSSKHKVHYLAWYQQKPGKAPKLLIYGASNLYSGVPSRFSGSGSGTDFTLTISSLQPEDFATYYCAQFYSYPLTFGGGTKVEIK",
    "UNIT INFO": "OD450",
    "OD450": 0.11
  },
  {
    "BINDER": "PcOxP_DB04_E05 (scFv, V domains shown, scFv in periplasmic extract) VH: EVQLLESGGGLVQPGGSLRLSCAASGNTFSDFYMEWVRQAPGKGLEWVAASRNKANYYTTEYADSVKGRFTISRDNSKNTLYLQMNSLRAEDTAVYYCARDYYGSSYWYFDVWGQGTLVTVSS VL: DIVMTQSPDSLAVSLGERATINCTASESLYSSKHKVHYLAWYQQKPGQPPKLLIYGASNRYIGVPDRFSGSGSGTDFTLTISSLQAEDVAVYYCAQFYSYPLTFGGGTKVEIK",
    "UNIT INFO": "OD450",
    "OD450": 0.09
  },
  {
    "BINDER": "PcOxP_DB04_G08 (scFv, V domains shown, scFv in periplasmic extract) VH: EVQLLESGGGLVQPGGSLRLSCAASGFTGSDFYMEWVRQAPGKGLEWVAASRNKANDYTTEYADSVKGRFTISRDNSKNTLYLQMNSLRAEDTAVYYCARDYYGSSYWYFDVWGQGTLVTVSS VL: DIVMTQSPDSLAVSLGERATINCTASESLYSSKHKVHYLAWYQQKPGQPPKLLIYGASNRYQGVPDRFSGSGSGTDFTLTISSLQAEDVAVYYCAQFYWYPLTFGGGTKVEIK",
    "UNIT INFO": "OD450",
    "OD450": 0.07
  },
  {
    "BINDER": "PcOxP_DB03_D07 (scFv, V domains shown, scFv in periplasmic extract) VH: EVQLLESGGGLVQPGGSLRLSCAASGFTFSDVYMEWVRQAPGKGLEWVAASRNKANDYTTEYADSVKGRFTISRDNSKNTLYLQMNSLRAEDTAVYYCARDYYGSSYWYFDVWGQGTLVTVSS VL: DIQMTQSPSSLSASVGDRVTITCTASESLYSSKHKVHYLAWYQQKPGKAPKLLIYGASNRYSGVPSRFSGSGSGTDFTLTISSLQPEDFATYYCAQFYKYPLTFGGGTKVEIK",
    "UNIT INFO": "OD450",
    "OD450": 0.12
  },
  {
    "BINDER": "PcOxP_DB03_C04 (scFv, V domains shown, scFv in periplasmic extract) VH: EVQLLESGGGLVQPGGSLRLSCAASGFTFSDFYMEWVRQAPGKGLEWVAASRNKANDYTTEYADSVKGRFTISRDNSKNTLYLQMNSLRAEDTAVYYCARDYYGSSYWYNDVWGQGTLVTVSS VL: DIVMTQSPDSLAVSLGERATINCTASESLYSSKHKVHYLAWYQQKPGQPPKLLIYGASNRYIGVPDRFSGSGSGTDFTLTISSLQAEDVAVYYCAQFYTYPLTFGGGTKVEIK",
    "UNIT INFO": "OD450",
    "OD450": 0.07
  },
  {
    "BINDER": "PcOxP_DB01_E02 (scFv, V domains shown, scFv in periplasmic extract) VH: EVQLLESGGGLVQPGGSLRLSCAASGFTFSDYYMEWVRQAPGKGLEWVAASRNKGNDYTTEYADSVKGRFTISRDNSKNTLYLQMNSLRAEDTAVYYCARDYYGSSYWYFDVWGQGTLVTVSS VL: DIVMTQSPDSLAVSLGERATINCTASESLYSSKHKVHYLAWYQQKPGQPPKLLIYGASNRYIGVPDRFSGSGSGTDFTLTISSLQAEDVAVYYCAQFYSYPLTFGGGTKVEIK",
    "UNIT INFO": "OD450",
    "OD450": 0.07
  },
  {
    "BINDER": "PcOxP_DB03_A11 (scFv, V domains shown, scFv in periplasmic extract) VH: EVQLLESGGGLVQPGGSLRLSCAASGFTFSSYYMEWVRQAPGKGLEWVAASRNQANDYTTEYADSVKGRFTISRDNSKNTLYLQMNSLRAEDTAVYYCARDYYGSSYWYLDVWGQGTLVTVSS VL: DIQMTQSPSSLSASVGDRVTITCTASESLYSSKHKVHYLAWYQQKPGKAPKLLIYGADNRYIGVPSRFSGSGSGTDFTLTISSLQPEDFATYYCAQFYHYPLTFGGGTKVEIK",
    "UNIT INFO": "OD450",
    "OD450": 0.08
  },
  {
    "BINDER": "PcOxP_DB02_G09 (scFv, V domains shown, scFv in periplasmic extract) VH: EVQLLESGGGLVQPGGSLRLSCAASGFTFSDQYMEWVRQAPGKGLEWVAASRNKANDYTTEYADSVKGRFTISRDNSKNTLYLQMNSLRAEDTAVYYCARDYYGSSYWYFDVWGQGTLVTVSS VL: DIQMTQSPSSLSASVGDRVTITCTASESLYSSKHKVHYLAWYQQKPGKAPKLLIYGASNRPIGVPSRFSGSGSGTDFTLTISSLQPEDFATYYCAQFYSYPLTFGGGTKVEIK",
    "UNIT INFO": "OD450",
    "OD450": 0.1
  },
  {
    "BINDER": "PcOxP_DB02_B10 (scFv, V domains shown, scFv in periplasmic extract) VH: EVQLLESGGGLVQPGGSLRLSCAASGFTESDFYMEWVRQAPGKGLEWVAASRNKANDYTTEYADSVKGRFTISRDNSKNTLYLQMNSLRAEDTAVYYCARDYYGSSYWYFDVWGQGTLVTVSS VL: DIQMTQSPSSLSASVGDRVTITCTASESLYSSKHKVHYLAWYQQKPGKAPKLLIYGASNRYIGVPSRFSGSGSGTDFTLTISSLQPEDFATYYCAQFYVYPLTFGGGTKVEIK",
    "UNIT INFO": "OD450",
    "OD450": 0.08
  }
]

Now, please, on to the next binder.
Which OD450 value belongs to PcOxP_DB02_E08 (scFv, V domains shown, scFv in periplasmic extract) VH: EVQLLESGGGLVQPGGSLRLSCAASGFTFSDDYMEWVRQAPGKGLEWVAATRNKANDYTTEYADSVKGRFTISRDNSKNTLYLQMNSLRAEDTAVYYCARDYYGSSYWYFDSWGQGTLVTVSS VL: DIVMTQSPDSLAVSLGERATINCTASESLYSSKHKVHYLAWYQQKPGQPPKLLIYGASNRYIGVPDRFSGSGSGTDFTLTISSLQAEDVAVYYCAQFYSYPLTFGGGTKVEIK ?
0.07
